- Tested on: SK-MEL-2
- Assay explanation: NCI tumour cell line growth inhibition, 48 h
Activity calls are given as the source filed them. Rule as the data show it: active = GI50 up to about 1.1 µM and inactive = higher.
Please state which outcome applies, choosing from t (active), f (inactive)

[[record]]
compound = "O=C1NC(=O)[C@@H](OCC2CCCCC2)[C@@H]2OCC3OC(C(O)C3O)C12 (some centres undefined)"
tgt = "SK-MEL-2"
label = "f"

[[record]]
compound = "Cc1cccc2nc3cccc(C(=O)NCCC[N+](C)(CCCNC(=O)c4cccc5nc6cccc(C)c6nc45)Cc4c([N+](=O)[O-])ncn4C)c3nc12"
tgt = "SK-MEL-2"
label = "f"

[[record]]
compound = "O=Cc1cc2c(o1)C(=O)c1ccccc1C2=O"
tgt = "SK-MEL-2"
label = "t"


Outcome logged for O=c1[nH]c(=O)n(C2OC(CO)C(O)C2O)c2ncc(-c3ccc(-c4ccccc4)cc3)nc12 (centres undefined) in this assay:
f

Lab log entry: OCCN=C1c2ccccc2C2C(c3ccccc31)C1c3ccccc3C(=NCCO)c3ccccc3C21 (centres undefined) — outcome as called in the assay?
f

Please let me know the test result on file for CCN(CC)CC[n+]1ccc2c(C)c3[nH]c4ccccc4c3c(C)c2c1 .
t

Just curious, what result did COc1ccc2c(c1)C(O)(C(F)(F)F)c1cc(C(=O)C(F)(F)F)c3ccccc3c1N2 (centres undefined) get here?
f

What did the test return for CC(=O)O[C@@]12CO[C@@H]1CC(O)[C@@]1(C)C(=O)[C@H](O)C3=C(C)C(O)C[C@@](O)(C(OC(=O)c4ccccc4)C12)C3(C)C (some centres undefined) ?
t

Just curious, what result did Cc1ccc(NC(=O)c2cc3ccccc3c(/N=N\c3ccccc3O)c2O)c(C)c1 get here?
f

###

- Tested on: HOP-62
- Assay explanation: NCI tumour cell line growth inhibition, 48 h
Calls of active or inactive are those of the source. Rule as the data show it: active = GI50 up to about 1.1 µM and inactive = higher.
Experimental readout: GI50

Here's what some known entries look like.
[[record]]
compound = "Cc1ccc(/N=N/c2c(O)ccc3ccccc23)c(C)c1"
experimental_readout = "GI50"
observed_measurement = "> 100 µM (inactive)"

[[record]]
compound = "COC(=O)C(=O)C(C(=O)C=C(C)C)C(=O)C(=O)Nc1ccc(C)cc1C (centres undefined)"
experimental_readout = "GI50"
observed_measurement = "> 100 µM (inactive)"

[[record]]
compound = "O=c1[nH]c2cc3cccnc3c(Cl)c2nc1CBr"
experimental_readout = "GI50"
observed_measurement = "15.5 µM (inactive)"

[[record]]
compound = "O=P(O)(O)C1CCCC(P(=O)(O)O)N1 (centres undefined)"
experimental_readout = "GI50"
observed_measurement = "> 100 µM (inactive)"

[[record]]
compound = "Cc1ccc2ccc(O)cc2c1"
experimental_readout = "GI50"
observed_measurement = "> 100 µM (inactive)"

[[record]]
compound = "CC1OC2(CC(OCc3ccccc3)C1OCc1ccccc1)OCCO2 (centres undefined)"
experimental_readout = "GI50"
observed_measurement = "> 100 µM (inactive)"


Lab book: GI50 of C[C@@H](NC(=O)c1ccc(CNC(=O)/C=C/c2cccc(Oc3ccccc3)c2)cc1)c1ccccc1 noted as 17.9 µM (inactive)

Given item CC(=O)C(C(=O)C(C)(C)C)C(=O)C(C)(C)C , the value recorded as its GI50 is > 100 µM (inactive)

For this compound ( COc1ccc(OC)c([N+](=O)[O-])c1-c1nc2sc(C)cn2c1/C=N/N=C(N)N ), measured GI50 is 43.5 µM (inactive)

Notebook: O=C1CCC(=O)C1=NNc1cc(Cl)cc(Cl)c1 , GI50 read as > 100 µM (inactive)

Value of GI50 reported for the compound Clc1cc2c(c(CSC3=NCN(CC4CC4)CN3)c1)OCOC2 is 21.9 µM (inactive)

###

- Test system: NCI-H23
- Assay explanation: NCI tumour cell line growth inhibition, 48 h
The source made the active and inactive calls. No stated cut-off is given here; in the data, active = GI50 up to about 1.1 µM and inactive = higher.
# valid calls are active, inactive; nothing else

These solved cases illustrate the format of a correct answer.
[[record]]
molecule = "CC(NS(C)(=O)=O)c1ccccc1 (stereo unspecified)"
tgt = "NCI-H23"
label = "inactive"

[[record]]
molecule = "CC(C)(C)/N=N/C(C)(C)N=C=O"
tgt = "NCI-H23"
label = "inactive"

[[record]]
molecule = "Cc1ccc(NC(=O)CC(=O)n2nc(-c3ccccc3)c(/N=N/c3ccccc3Cl)c2-c2ccccc2)cc1"
tgt = "NCI-H23"
label = "inactive"


Answer briefly: the call reported for COC1=C(C)C(=O)C2=C(C1=O)C1C3CC4=C(C(=O)C(OC)=C(C)C4=O)C(CNC(=O)C(C)O)N3C(C#N)C(C2)N1C (stereo unspecified) in this assay.
active

Could you please tell me the result logged for CCC(C)NC(=S)N/N=C(\C)c1ccccn1 (stereo unspecified) in this assay?
active

Could you please tell me the result logged for CC(C)(C)C[P+](C)(C)c1ccccc1 in this assay?
inactive

###

Listed here: items and their measured GI50.
- System: HOP-92
- Assay explanation: NCI tumour cell line growth inhibition, 48 h
Active and inactive are the calls of the source. No stated cut-off is given here; in the data, active = GI50 up to about 1.1 µM and inactive = higher.

[[record]]
molecule = "O=[N+]([O-])c1ccc(C2Nn3c(nnc3-c3cccc([N+](=O)[O-])c3)S2)cc1 (stereo not drawn)"
experimental_readout = "GI50"
observed_measurement = "> 100 µM (inactive)"

[[record]]
molecule = "Cc1sc2nc(-c3cc([N+](=O)[O-])c(Cl)cc3Cl)c(/C=N/NC(=N)N)n2c1C"
experimental_readout = "GI50"
observed_measurement = "7.13 µM (inactive)"

[[record]]
molecule = "COc1cc(OCc2ccc3nc(OC)c(OC)nc3c2)cc(OC)c1OC"
experimental_readout = "GI50"
observed_measurement = "7.18 µM (inactive)"

[[record]]
molecule = "CC(=O)O[C@H]1C(=O)[C@]2(C)[C@@H](OC(=O)OCC(O)CO)C[C@H]3OC[C@@]3(OC(C)=O)[C@H]2[C@H](OC(=O)c2ccccc2)[C@]2(O)C[C@H](OC(=O)[C@H](O)[C@@H](NC(=O)c3ccccc3)c3ccccc3)C(C)=C1C2(C)C (stereo partly drawn) [PACLITAXEL CERIBATE]"
experimental_readout = "GI50"
observed_measurement = "22.4 µM (inactive)"

[[record]]
molecule = "CCc1cccc(C(C)C)c1NC(=O)C(=O)C1C(=O)NC(=O)NC1=O"
experimental_readout = "GI50"
observed_measurement = "> 100 µM (inactive)"


Kindly note the recorded GI50 for O=P(O)(O)C1CCCC(P(=O)(O)O)N1 (stereo not drawn) , which is > 100 µM (inactive)

What the record says about CCN(CC)C(=S)/N=C(\SC(=S)N(CC)CC)c1ccccc1 : GI50 is > 100 µM (inactive)

Sample COc1cc(O)c2c(=O)cc(-c3ccc(O)cc3O)oc2c1CC=C(C)C ; GI50 observed: 19.6 µM (inactive)

###

- System: COLO 205
- Assay explanation: NCI tumour cell line growth inhibition, 48 h
Active and inactive are the calls of the source. Cut-off read from the data, not from the text of the source: active = GI50 up to about 1.1 µM and inactive = higher.
// one of active, inactive, no free text

# count of solved cases: 3
[[record]]
compound = "O=S(=O)(O)c1ccc(/N=N\\c2ccc(/N=N/c3ccc(/C=C/c4ccc(/N=[N+](\\[O-])c5ccc(/C=C/c6ccc(/N=N/c7ccc(/N=N/c8ccc(S(=O)(=O)O)cc8)c8ccccc78)cc6S(=O)(=O)O)c(S(=O)(=O)O)c5)cc4S(=O)(=O)O)c(S(=O)(=O)O)c3)c3ccccc23)cc1"
label = "inactive"

[[record]]
compound = "COc1cc(CNc2nc3ccccc3nc2C(=O)O)cc(OC)c1OC"
label = "inactive"

[[record]]
compound = "CCN(CC)C(=S)/N=C(\\SC(=S)N(CC)CC)c1ccccc1"
label = "active"


// outcome(item) with item = O=c1[nH]c2cc3cccnc3c(Cl)c2nc1CBr
inactive

Which outcome was entered for the compound Cc1cc(C)nc(NS(=O)(=O)c2ccc(NC(=O)c3ccc(Cl)c4c(Nc5ccc(S(=O)(=O)Nc6nc(C)cc(C)n6)cc5)c5ccccc5nc34)cc2)n1 in this test?
inactive

Hi, sorry to bother you, what did the test record for Cc1cc(OC(=O)Nc2ccc(Cl)cc2)ccc1C(=S)Nc1ccccc1 ?
inactive

For this compound, state the assay outcome: Cc1ccc2ccc(O)cc2c1
inactive

// outcome(item) with item = CNC(=S)N/N=C/c1cccc(C)n1
inactive

###

- System: OVCAR-4
- Assay explanation: NCI tumour cell line growth inhibition, 48 h
Counter-ions that a name gives are not always drawn. Calls of active or inactive are those of the source. Rule as the data show it: active = GI50 up to about 1.1 µM and inactive = higher.
In this section we review reported GI50 values for a set of compounds.

Example cases with answers are listed next.
[[record]]
compound = "CC(C)C[C@H](NC(=O)CCc1cccc2ccccc12)B(O)O"
experimental_readout = "GI50"
observed_measurement = "4.56 µM (inactive)"

[[record]]
compound = "CCOC(=O)C1=C(C(=O)OCC)C2(c3ccccc3)N(O1)c1ccccc1C2(C)C (centres undefined)"
experimental_readout = "GI50"
observed_measurement = "18.7 µM (inactive)"

[[record]]
compound = "O=C1N(CN2CCOCC2)CN(CN2CCOCC2)C(=O)N1Cc1ccc(-c2ccc(CN3C(=O)N(CN4CCOCC4)CN(CN4CCOCC4)C3=O)cc2)cc1"
experimental_readout = "GI50"
observed_measurement = "14 µM (inactive)"

[[record]]
compound = "CSc1cnc2ccccc2c1Sc1cn(C)c2ccccc2c1=O"
experimental_readout = "GI50"
observed_measurement = "34.8 µM (inactive)"

[[record]]
compound = "Cn1cc(NC(=O)c2cc(NC(=O)Nc3cc(C(=O)Nc4cc(C(=O)NCCC(=N)N)n(C)c4)n(C)c3)cn2C)cc1C(=O)NCCC(=N)N"
experimental_readout = "GI50"
observed_measurement = "38.7 µM (inactive)"

[[record]]
compound = "Cc1ccc(S(=O)OCC23CC4CC(CC(C4)C2)C3)cc1 (centres undefined)"
experimental_readout = "GI50"
observed_measurement = "> 100 µM (inactive)"

[[record]]
compound = "CC[C@]1(Cc2ccc(OC)c(OC)c2)C=[N+]([O-])O[C@H](OC2CCCCC2c2ccccc2)[C@@H]1OC(C)=O (some centres undefined)"
experimental_readout = "GI50"
observed_measurement = "33 µM (inactive)"

[[record]]
compound = "O=C(/C=C/C(Cl)(Cl)Cl)Nc1ccc(Cl)cc1"
experimental_readout = "GI50"
observed_measurement = "1.82 µM (inactive)"

[[record]]
compound = "O=CC(O)C(O)C1OC(=O)c2cc(O)c(O)c(O)c2C2=C(O)C(O)=C3OC(=O)c4c(c(O)c(O)c5c4C3C2C(=O)O5)-c2c(cc(O)c(O)c2O)C(=O)OCC1O (centres undefined)"
experimental_readout = "GI50"
observed_measurement = "16.7 µM (inactive)"

[[record]]
compound = "O=C(/C=C/c1cccc2ccccc12)c1ccccc1Cl"
experimental_readout = "GI50"
observed_measurement = "15.1 µM (inactive)"


Item: O=C(CSc1nc(-c2ccccc2)c(-c2ccccc2)[nH]1)NNC(=S)Nc1ccccc1 | GI50: 64 µM (inactive)

GI50 measured on COC(=O)C1=CO[C@@H](C)[C@@H]2Cn3ccc4c5ccccc5nc-4c3C[C@H]12 [ALSTONINE HYDROCHLORIDE] = > 100 µM (inactive)

The reported GI50 of the compound O=[Se](O)O was 7.06 µM (inactive)

The reported GI50 of the compound Cc1ccc(S(=O)(=O)NC(=O)Nc2ccc(S(N)(=O)=O)cc2S(N)(=O)=O)cc1 was > 100 µM (inactive)

c1ccc(N/N=N/c2ccc(-c3nc4ccccc4[nH]3)cc2)nc1 yielded GI50 of 17.8 µM (inactive)

Entry C[C@]12CCC(=O)C(O)=C1CC[C@@H]1[C@@H]2CC[C@]2(C)C(=O)CC[C@@H]12 ; GI50 = > 100 µM (inactive)

Looking up CC1(c2ccccc2)N=c2[nH]cnc2=C(C(N)=O)N1 (centres undefined) , I see its GI50 listed as > 100 µM (inactive)

Cc1cc(OC(=O)Nc2ccc(Cl)cc2)ccc1C(=S)Nc1ccccc1 has a reported GI50 of 24.8 µM (inactive)

Briefly, GI50 measured for O=C(Nc1ccccc1[N+](=O)[O-])/C(=N/Nc1cccc(Cl)c1)c1c(O)c2ccccc2oc1=O : > 100 µM (inactive)

# GI50 (compound: COc1cc2c3c(n(C)c(=O)c2cc1OC)-c1cc2c(cc1/C3=C\CCCCCBr)OCO2 ) is 26.9 µM (inactive)

Given item CC(=O)OCC1OC(OCCCCCCO)C(OC(C)=O)C(OC(C)=O)C1OC(C)=O (centres undefined) , the value recorded as its GI50 is > 100 µM (inactive)

The measured GI50 associated with COc1cc(CNc2nc3c(N)cc(C(F)(F)F)cc3nc2-c2ccccc2)cc(OC)c1OC reads 8.95 µM (inactive)

Note to self: GI50 recorded for COc1cc2c(OC)c(c1)CCCC1=CC(=O)C=C(CCC2)C1=O was 17.2 µM (inactive)

compound COC(=O)C(Cc1ccccc1)NP(=O)(O)OCC1OC(n2cc(I)c(=O)[nH]c2=O)CC1O (centres undefined) , GI50 observed: > 100 µM (inactive)

The recorded GI50 for COC(=O)C12CC3CC(CC(C(=O)O)(C3)C1)C2 is > 100 µM (inactive)

Per the records, this compound ( C#C[C@@]1(O)CCCC2=CC3(CC[C@]21C)SCCS3 ) has GI50 equal to > 100 µM (inactive)

Item: COP(=O)(OC)/C(=C/c1cn(C(c2ccccc2)(c2ccccc2)c2ccccc2)cn1)NC=O | GI50: 18.2 µM (inactive)

Please fill in: GI50 reported for O=C1CSc2nc3ccccc3n2/C=N\N1 = > 100 µM (inactive)

// O=[N+]([O-])c1ccc(N2CCC(CCCC3CCN(c4ccc([N+](=O)[O-])cc4[N+](=O)[O-])CC3)CC2)c([N+](=O)[O-])c1 : GI50 value = 12.9 µM (inactive)

Lab book: GI50 of CC1CC(=O)C(C(O)CC2CC(=O)N(c3ccccc3)C(=O)C2)C(C)C1 (centres undefined) noted as > 100 µM (inactive)

Entry CCOC(=O)C12CCCC1(O)N(NC(=O)c1ccccc1)C(C)=C2C(=O)OC (centres undefined) ; GI50 = > 100 µM (inactive)

Query O=[N+]([O-])c1ccc(N/N=C/c2ccc(OCCCCCCCCCCCO)cc2)c([N+](=O)[O-])c1 yields GI50 of 4.13 µM (inactive)

# GI50 of CN1NC(c2ccccc2)=C(C#N)C(=O)CC1c1ccc(Br)cc1 (centres undefined) = 45.6 µM (inactive)

Entry C=C1C(=O)OC2/C=C(/C)C(OC(C)=O)CC(O)/C(C)=C\C(OC(=O)/C(C)=C\C)C12 (centres undefined) — recorded GI50 = > 100 µM (inactive)

These data points were gathered from ChEMBL document CHEMBL1201862.
